# target: lambda CI repressor (Bacteriophage lambda, UniProt P03034 1-237)
# Sequence (P03034 whole entry): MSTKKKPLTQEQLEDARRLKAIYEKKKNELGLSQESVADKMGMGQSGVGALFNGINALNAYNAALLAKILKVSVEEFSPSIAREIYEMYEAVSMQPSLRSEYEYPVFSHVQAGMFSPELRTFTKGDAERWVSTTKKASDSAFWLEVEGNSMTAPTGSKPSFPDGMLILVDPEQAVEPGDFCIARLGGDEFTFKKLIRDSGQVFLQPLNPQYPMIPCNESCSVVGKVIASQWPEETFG
# procedureText: EMSA; apparent Kd; EMSA: 10 mM HEPES, 150 mM NaCl, pH 7.4; 50 nM DNA, 0.4-40 uM CI; 20 min at room temperature; 10% polyacrylamide gel, 1x TBE pH 8.3, SYBR Safe stain
# conditionParameters: protein: recombinant; tags: His-tag, TEV cleavage site with linker (pET 29b+); chain copies: 2; label: none (SYBR Safe stain)
Each item that follows carries a reported Kd.
Report the value in µM with no unit label.

Take a look at these entries with their results.
binder: LOR3 (lambda OR3) (dsDNA) DNA 1: GGTTATTATGGTATCACCGCAAGGGATATGCAAGTGC DNA 2: GCACTTGCATATCCCTTGCGGTGATACCATAATAACC
Kd / µM: 3.07
--
binder: VOL1 (VT2-SA OL1) (dsDNA) DNA 1: GGTTATTATGGTAGTACGATATGTACTTTGCAAGTGC DNA 2: GCACTTGCAAAGTACATATCGTACTACCATAATAACC
Kd / µM: 5.37
--
binder: SOL1 (Stx2I OL1) (dsDNA) DNA 1: GGTTATTATGGCAATGATGATTTCATGCTGCAAGTGC DNA 2: GCACTTGCAGCATGAAATCATCATTGCCATAATAACC
Kd / µM: 7.11
--
binder: LOL2 (lambda OL2) (dsDNA) DNA 1: GGTTATTATGGCAACACCGCCAGAGATATGCAAGTGC DNA 2: GCACTTGCATATCTCTGGCGGTGTTGCCATAATAACC
Kd / µM: 1.5
--
binder: SOL3 (Stx2I OL3) (dsDNA) DNA 1: GGTTATTATGGGCTTCTTGAATAACAGCTGCAAGTGC DNA 2: GCACTTGCAGCTGTTATTCAAGAAGCCCATAATAACC
Kd / µM: 4.26

Query string: I would be grateful if you could share the reported Kd for LOR2 (lambda OR2) (dsDNA) DNA 1: GGTTATTATGGTAACACCGTGCGTGTTGTGCAAGTGC DNA 2: GCACTTGCACAACACGCACGGTGTTACCATAATAACC .
Result string: 1.55

Query string: I would be grateful if you could share the reported Kd for VOL3 (VT2-SA OL3) (dsDNA) DNA 1: GGTTATTATGGTACAACGCTTTGTATTTTGCAAGTGC DNA 2: GCACTTGCAAAATACAAAGCGTTGTACCATAATAACC .
Result string: 3.67
